system: primary human fibroblasts derived from IPF patients (LL29 cells); experiment: Inhibition of the fibrotic process in TGF-β1-treated primary human fibroblasts from IPF patients (αSMA staining); type: cell-based; settings: Fibroblast, 96 h, TGF-β1 20 ng/mL, 4 days, read-out: Inhibition of fibrosis EC50
Response field label takes TRUE when EC50 is strictly below 0.1 µM and FALSE in all other cases.

Q: Hello, I'm reviewing records and need to know if EC50 of O=C(CC1CCNCC1)Nc1cncc(-c2cc3c(-c4nc5c(-c6cccc(F)c6)ccnc5[nH]4)n[nH]c3cn2)c1 [Compound 945] is below 0.1 µM. Could you check?
Result: TRUE

Q: Is the reported EC50 for c1ccc(-c2ccnc3[nH]c(-c4n[nH]c5cnc(-c6cncc(CNCC7CCCC7)c6)cc45)nc23)nc1 [Compound 154] strictly below 0.1 µM?
Result: FALSE

Q: I wonder whether CCCCC(=O)Nc1cncc(-c2cc3c(-c4nc5c(-c6ccoc6)ccnc5[nH]4)n[nH]c3cn2)c1 [Compound 304] has EC50 below 0.1 µM. Can you tell?
Result: FALSE

Q: State whether 0.1 µM exceeds EC50 recorded for Cc1ccc(-c2ccnc3[nH]c(-c4n[nH]c5cnc(-c6cncc(NC(=O)C7CCCC7)c6)cc45)nc23)s1 [Compound 385] .
Result: FALSE

Q: Lab log: compare recorded EC50 with 0.1 µM; is it strictly lower for CC(C)(C)CC(=O)Nc1cncc(-c2cc3c(-c4nc5cccnc5[nH]4)n[nH]c3cn2)c1 [Compound 250] ?
Result: FALSE

Q: Is EC50 of Fc1cccc(-c2ccnc3[nH]c(-c4n[nH]c5cnc(-c6cncc(CN7CCC(F)(F)C7)c6)cc45)nc23)c1 [Compound 25] strictly below 0.1 µM?
Result: TRUE

Q: Hello, is EC50 of the following compound strictly smaller than 0.1 µM? c1cncc(-c2cc3c(-c4nc5c(-c6cccnc6)ccnc5[nH]4)n[nH]c3cn2)c1 [Compound 82]
Result: TRUE
